test name: Inhibition of sweet almond beta-glucosidase assessed as enzymatic hydrolysis of 2-chloro-4-nitrophenyl beta-D-glucopyranoside preincubated with substrate for 20 mins followed by protein addition by UV-visible spectroscopy
Set-up: species or system Prunus dulcis
pIC50: −log10 of the molar value.
metric: pIC50

Examples with their reported pIC50 follow.
OC[C@H]1N/C(=N\Cc2ccc(C(F)(F)F)cc2)[C@H](O)[C@@H](O)[C@H]1O: 5.55
CCCCCCC/N=C1\N[C@H](CO)[C@H](O)[C@H](O)[C@H]1O: 5.66
OC[C@H]1N/C(=N\Cc2cccc(F)c2)[C@H](O)[C@@H](O)[C@H]1O: 4.96
OC[C@H]1N/C(=N\CC2CC2)[C@H](O)[C@@H](O)[C@H]1O: 4.72
OC[C@H]1N/C(=N\Cc2ccccc2)[C@H](O)[C@@H](O)[C@H]1O: 5.55
Cc1ccc(C/N=C2\N[C@H](CO)[C@H](O)[C@H](O)[C@H]2O)cc1: 5.52

[P] COc1ccc(C/N=C2\N[C@H](CO)[C@H](O)[C@H](O)[C@H]2O)cc1
[Q] OC[C@H]1N/C(=N\Cc2ccccc2F)[C@H](O)[C@@H](O)[C@H]1O
Input line: For the two items P and Q , which reports the higher pIC50 value? Returns: label corresponding to the selected item.
Output line: Q
(Q: 5.74, P: 4.89)

----------
test name: Inhibition of sweet almond beta-glucosidase assessed as enzymatic hydrolysis of 2-chloro-4-nitrophenyl beta-D-glucopyranoside preincubated with substrate for 20 mins followed by protein addition by UV-visible spectroscopy
Parameters: species or system Prunus dulcis
metric: IC50 (µM)

Examples with their reported IC50 follow.
OC[C@H]1N/C(=N\CC2CCCCCC2)[C@H](O)[C@@H](O)[C@H]1O: 5
CCC/N=C1\N[C@H](CO)[C@H](O)[C@H](O)[C@H]1O: 4.8
Cc1ccc(CNC2=N[C@H](CO)[C@@H](O)[C@@H]2O)cc1: 6200

[P] CC(C)(C)c1ccc(C/N=C2\N[C@H](CO)[C@H](O)[C@H](O)[C@H]2O)cc1
[Q] Cc1ccccc1C/N=C1\N[C@H](CO)[C@H](O)[C@H](O)[C@H]1O
[R] CCCCCCCCCCCC/N=C1\N[C@H](CO)[C@H](O)[C@H](O)[C@H]1O
Input line: Rank order required: IC50, descending. Field: ranking. Enter the labels in the order requested.
Output line: Q, P, R

[P] OC[C@H]1N/C(=N\CCCc2ccccc2)[C@H](O)[C@@H](O)[C@H]1O
[Q] OC[C@H]1N/C(=N\Cc2ccc(F)cc2)[C@H](O)[C@@H](O)[C@H]1O
Input line: For the two items P and Q , which reports the higher IC50 value? Returns: label corresponding to the selected item.
Output line: Q
(Q: 4.7 µM, P: 1.3 µM)

[I] OC[C@H]1N/C(=N\CC2CCCCC2)[C@H](O)[C@@H](O)[C@H]1O
[II] Cc1cccc(C/N=C2\N[C@H](CO)[C@H](O)[C@H](O)[C@H]2O)c1
[III] CCCCC(CC)CNC1=N[C@H](CO)[C@H](O)[C@H](O)[C@H]1O (stereo partly specified)
[IV] OC[C@H]1N/C(=N\C2CC2)[C@H](O)[C@@H](O)[C@H]1O
Input line: Rank order required: IC50, descending. Field: ranking. Enter the labels in the order requested.
Output line: IV, II, III, I
(IV: 32 µM, II: 5.1 µM, III: 2.5 µM, I: 1.6 µM)

----------
test name: Inhibition of sweet almond beta-glucosidase assessed as enzyme mediated hydrolysis of 2-chloro-4-nitrophenyl beta-D-glucopyranoside preincubated with substrate for 30 mins followed by protein addition measured every 10 secs for 10 mins by UV-visible spectroscopy
Parameters: species or system Prunus dulcis
metric: Ki (µM)

Examples with their reported Ki follow.
Cc1ccccc1C/N=C1\N[C@H](CO)[C@H](O)[C@H](O)[C@H]1O: 26.2
OC[C@H]1N/C(=N\Cc2cccc(F)c2)[C@H](O)[C@@H](O)[C@H]1O: 124
OC[C@H]1N/C(=N\CCCc2ccccc2)[C@H](O)[C@@H](O)[C@H]1O: 28.1
COc1ccc(C/N=C2\N[C@H](CO)[C@H](O)[C@H](O)[C@H]2O)cc1: 55.9

[A] OC[C@H]1N/C(=N\Cc2ccc(F)cc2)[C@H](O)[C@@H](O)[C@H]1O
[B] OC[C@H]1N/C(=N\Cc2ccccc2F)[C@H](O)[C@@H](O)[C@H]1O
[C] CCCCCCC/N=C1\N[C@H](CO)[C@H](O)[C@H](O)[C@H]1O
[D] CO[C@H]1C(NCc2ccc(C)cc2)=N[C@H](CO)[C@H](O)[C@@H]1O
[E] CC(C)(C)c1ccc(C/N=C2\N[C@H](CO)[C@H](O)[C@H](O)[C@H]2O)cc1
Input line: Rank order required: Ki, descending. Field: ranking. Enter the labels in the order requested.
Output line: B, A, C, E, D
(B: 118 µM, A: 57.5 µM, C: 29.6 µM, E: 14.7 µM, D: 5 µM)

----------
test name: Inhibition of sweet almond beta-glucosidase assessed as enzyme mediated hydrolysis of 2-chloro-4-nitrophenyl beta-D-glucopyranoside preincubated with substrate for 30 mins followed by protein addition measured every 10 secs for 10 mins by UV-visible spectroscopy
Parameters: species or system Prunus dulcis
pKi: −log10 of the molar value.
metric: pKi

Examples with their reported pKi follow.
OC[C@H]1N/C(=N\CC2CCCCCC2)[C@H](O)[C@@H](O)[C@H]1O: 4.57
CCCCCCCCCCCC/N=C1\N[C@H](CO)[C@H](O)[C@H](O)[C@H]1O: 4.69
CCCCC(CC)CNC1=N[C@H](CO)[C@H](O)[C@H](O)[C@H]1O (stereo partly drawn): 4.76

[A] OC[C@H]1N/C(=N\C2CC2)[C@H](O)[C@@H](O)[C@H]1O
[B] Cc1ccc(CNC2=N[C@H](CO)[C@@H](O)[C@@H]2O)cc1
Input line: For the two items A and B , which reports the higher pKi value? Returns: label corresponding to the selected item.
Output line: A
(A: 4.93, B: 3.01)

[A] OC[C@H]1N/C(=N\CC2CC2)[C@H](O)[C@@H](O)[C@H]1O
[B] Cc1ccc(C/N=C2\N[C@H](CO)[C@H](O)[C@H](O)[C@H]2O)cc1
[C] CCC/N=C1\N[C@H](CO)[C@H](O)[C@H](O)[C@H]1O
Input line: Rank order required: pKi, descending. Field: ranking. Enter the labels in the order requested.
Output line: B, A, C

[a] Cc1ccc(CNC2=N[C@H](CO)[C@H](O)[C@H](O)C2)cc1
[b] OC[C@H]1N/C(=N\Cc2ccc(C(F)(F)F)cc2)[C@H](O)[C@@H](O)[C@H]1O
Input line: For the two items a and b , which reports the higher pKi value? Returns: label corresponding to the selected item.
Output line: a

----------
test name: Inhibition of sweet almond beta-glucosidase assessed as enzymatic hydrolysis of 2-chloro-4-nitrophenyl beta-D-glucopyranoside preincubated with substrate for 20 mins followed by protein addition by UV-visible spectroscopy
Design: species or system Prunus dulcis
# maps each entry to its IC50

N=C1N[C@H](CO)[C@H](O)[C@H](O)[C@H]1O: > 1000 µM

So for Cc1ccc(CNC2=N[C@H](CO)[C@H](O)[C@H](O)C2)cc1 , the logged IC50 turned out to be > 5000 µM

So for CO[C@@H]1[C@H](O)[C@@H](O)C(NCc2ccc(C)cc2)=N[C@@H]1CO , the logged IC50 turned out to be > 5000 µM

So for O=C1N[C@H](CO)[C@H](O)[C@H](O)[C@H]1O , the logged IC50 turned out to be > 1000 µM

----------
test name: Inhibition of sweet almond beta-glucosidase assessed as enzyme mediated hydrolysis of 2-chloro-4-nitrophenyl beta-D-glucopyranoside preincubated with substrate for 30 mins followed by protein addition measured every 10 secs for 10 mins by UV-visible spectroscopy
Set-up: species or system Prunus dulcis
pKi: −log10 of the molar value.
metric: pKi

CO[C@@H]1[C@H](O)[C@@H](O)C(NCc2ccc(C)cc2)=N[C@@H]1CO: 4.89

[1] OC[C@H]1N/C(=N\CC2CCCCC2)[C@H](O)[C@@H](O)[C@H]1O
[2] Cc1cccc(C/N=C2\N[C@H](CO)[C@H](O)[C@H](O)[C@H]2O)c1
Input line: For the two items 1 and 2 , which reports the higher pKi value? Returns: label corresponding to the selected item.
Output line: 1
(1: 4.31, 2: 3.53)

Data provenance is ChEMBL document CHEMBL3813652.
